Overview of recorded Molar % VFA Acetate for various compounds
test system: rumen fluid; experiment: In vitro incubation of buffered rumen fluid: volatile fatty acids, methane inhibition and hydrogen; format: cell-based, sheep; details: 10 ppm/flask, 20 h, 39° C, sheep rumen fluid
observable: Molar % VFA Acetate (%)

[[record]]
compound = "CCN(CC)CC(O)C(Cl)(Cl)Cl (centres unmarked)"
observable = "Molar % VFA Acetate"
result_units = "%"
recorded_result = 54.2

[[record]]
compound = "CN1CCN(CC(O)C(Cl)(Cl)Cl)CC1 (centres unmarked) [Compound A, reference compound]"
observable = "Molar % VFA Acetate"
result_units = "%"
recorded_result = 65.3

[[record]]
compound = "OC(CN1CCCC1)C(Cl)(Cl)Cl (centres unmarked)"
observable = "Molar % VFA Acetate"
result_units = "%"
recorded_result = 57.7

[[record]]
compound = "CN(C)CC(O)C(Cl)(Cl)Cl (centres unmarked)"
observable = "Molar % VFA Acetate"
result_units = "%"
recorded_result = 55.6

[[record]]
compound = "CC(C)CNCC(O)C(Cl)(Cl)Cl (centres unmarked)"
observable = "Molar % VFA Acetate"
result_units = "%"
recorded_result = 55.3

[[record]]
compound = "CNCC(O)C(Cl)(Cl)Cl (centres unmarked)"
observable = "Molar % VFA Acetate"
result_units = "%"
recorded_result = 55.3

[[record]]
compound = "OC(CN1CCCCC1)C(Cl)(Cl)Cl (centres unmarked)"
observable = "Molar % VFA Acetate"
result_units = "%"
recorded_result = 57.7

[[record]]
compound = "OC(CNC1CCCCC1)C(Cl)(Cl)Cl (centres unmarked)"
observable = "Molar % VFA Acetate"
result_units = "%"
recorded_result = 56.7


====

tested on: rumen fluid; assay: In vitro incubation of buffered rumen fluid: volatile fatty acids, methane inhibition and hydrogen; format: cell-based, sheep; details: Ovis aries; 10 ppm/flask, 20 h, 39° C
Item-by-item account of inhibition at 10 ppm
observable: inhibition at 10 ppm (%)

[[record]]
molecule = "CC(C)CNCC(O)C(Cl)(Cl)Cl (centres unmarked) [Example 4]"
observable = "inhibition at 10 ppm"
recorded_result = 100

[[record]]
molecule = "OC(CNC1CCCCC1)C(Cl)(Cl)Cl (centres unmarked) [Example 5]"
observable = "inhibition at 10 ppm"
recorded_result = 100

[[record]]
molecule = "CNCC(O)C(Cl)(Cl)Cl (centres unmarked) [Example 1, 1,1,1-Trichloro-3-methylaminopropan-2-ol]"
observable = "inhibition at 10 ppm"
recorded_result = 100

[[record]]
molecule = "CN1CCN(CC(O)C(Cl)(Cl)Cl)CC1 (centres unmarked) [Compound A, reference compound]"
observable = "inhibition at 10 ppm"
recorded_result = 50.6

[[record]]
molecule = "OC(CN1CCCC1)C(Cl)(Cl)Cl (centres unmarked) [Example 7]"
observable = "inhibition at 10 ppm"
recorded_result = 100

[[record]]
molecule = "CN(C)CC(O)C(Cl)(Cl)Cl (centres unmarked) [Example 2]"
observable = "inhibition at 10 ppm"
recorded_result = 100

[[record]]
molecule = "CCN(CC)CC(O)C(Cl)(Cl)Cl (centres unmarked) [Example 3]"
observable = "inhibition at 10 ppm"
recorded_result = 100

[[record]]
molecule = "OC(CN1CCCCC1)C(Cl)(Cl)Cl (centres unmarked) [Example 6]"
observable = "inhibition at 10 ppm"
recorded_result = 100


====

tested on: rumen fluid; assay: In vitro incubation of buffered rumen fluid: volatile fatty acids, methane inhibition and hydrogen; type: cell-based, sheep; settings: 10 ppm/flask, 20 h, 39° C, sheep rumen fluid
Criterion: Molar % VFA Butyrate meeting or surpassing 10%. Met: rule met. Not met: rule not met.

[[record]]
molecule = "CN(C)CC(O)C(Cl)(Cl)Cl (centres unmarked)"
assigned_label = "rule met"

[[record]]
molecule = "CCN(CC)CC(O)C(Cl)(Cl)Cl (centres unmarked)"
assigned_label = "rule met"

[[record]]
molecule = "CN1CCN(CC(O)C(Cl)(Cl)Cl)CC1 (centres unmarked) [Compound A, reference compound]"
assigned_label = "rule not met"

[[record]]
molecule = "CNCC(O)C(Cl)(Cl)Cl (centres unmarked)"
assigned_label = "rule met"

[[record]]
molecule = "CC(C)CNCC(O)C(Cl)(Cl)Cl (centres unmarked)"
assigned_label = "rule met"

[[record]]
molecule = "OC(CN1CCCCC1)C(Cl)(Cl)Cl (centres unmarked)"
assigned_label = "rule not met"

[[record]]
molecule = "OC(CN1CCCC1)C(Cl)(Cl)Cl (centres unmarked)"
assigned_label = "rule not met"

